# run_conditions: human;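 also: human clinical data: severe hepatitis, meaning potentially life-threatening liver failure or clinically observed cases, the value counts how many indexed literature references report it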
readout: Hepatotoxicity (severe hepatitis)

molecule	Hepatotoxicity (severe hepatitis)
COc1cc2nc(N3CCN(C(=O)C4COc5ccccc5O4)CC3)nc(N)c2cc1OC (configuration not stated)	0

Provide each entry's Hepatotoxicity (severe hepatitis) from the list below.
1. COCC1=C(C(=O)O)N2C(=O)[C@@H](NC(=O)/C(=N\OC)c3csc(N)n3)[C@H]2SC1
2. O=C(CCCN1CCC(C(=O)c2ccc(F)cc2)CC1)c1ccc(F)cc1
3. Cc1oncc1C(=O)Nc1ccc(C(F)(F)F)cc1 [LEFLUNOMIDE]
4. Cc1nc(C)c2c(n1)N(Cc1ccc(-c3ccccc3-c3nnn[nH]3)cc1)C(=O)CC2

1: 0; 2: 0; 3: 3; 4: 0

Provide each entry's Hepatotoxicity (severe hepatitis) from the list below.
1. CN(C)/N=N/c1[nH]cnc1C(N)=O
2. CN[C@@H]1[C@H](O)[C@H](NC)[C@H]2O[C@@]3(O)C(=O)C[C@@H](C)O[C@H]3O[C@@H]2[C@H]1O

[6, 0]

Provide each entry's Hepatotoxicity (severe hepatitis) from the list below.
1. CCCCC1C(=O)N(c2ccccc2)N(c2ccc(O)cc2)C1=O (configuration not stated) [OXYPHENBUTAZONE ANHYDROUS]
2. Nc1nc(F)nc2c1ncn2[C@@H]1O[C@H](CO)[C@@H](O)[C@@H]1O
3. COc1cccc2c1C(=O)c1c(O)c3c(c(O)c1C2=O)C[C@@](O)(C(=O)CO)C[C@@H]3O[C@H]1C[C@H](N)[C@@H](O)[C@H](C)O1 [EPIRUBICIN]
4. CNC(=C[N+](=O)[O-])NCCSCc1csc(CN(C)C)n1
5. CNNCc1ccc(C(=O)NC(C)C)cc1
6. CCCCCCCCCCCCCCCCOP(=O)([O-])OCC[N+](C)(C)C

[3, 1, 0, 1, 0, 0]

Provide each entry's Hepatotoxicity (severe hepatitis) from the list below.
1. CNc1nc(N(C)C)nc(N(C)C)n1
2. COCCCOc1ccnc(C[S+]([O-])c2nc3ccccc3[nH]2)c1C (configuration not stated)
3. CC(OC(=O)OC1CCCCC1)OC(=O)C1=C(CSc2nnnn2CCN(C)C)CS[C@@H]2[C@H](NC(=O)Cc3csc(N)n3)C(=O)N12 (some centres not stated)
4. CO[C@@H](/C(C)=C/C=C/C(C)=C/c1coc(C)n1)[C@@H](C)[C@@H]1C[C@H](O)[C@@]2(C)O[C@@H]2/C=C/[C@@H](C)[C@H]2C[C@H](CC(=O)O2)C[C@@H]2O[C@H]2C(=O)O1

1. 0
2. 1
3. 0
4. 0

Provide each entry's Hepatotoxicity (severe hepatitis) from the list below.
1. C[C@]12C=CC(=O)C=C1CC[C@@H]1[C@@H]2CC[C@@]2(C)[C@H]1CC[C@]2(C)O (stereo in doubt; form 1)
2. CN[C@H](CC(C)C)C(=O)N[C@H]1C(=O)N[C@@H](CC(N)=O)C(=O)N[C@H]2C(=O)N[C@H]3C(=O)N[C@H](C(=O)N[C@H](C(=O)O)c4cc(O)cc(O)c4-c4cc3ccc4O)[C@H](O)c3ccc(c(Cl)c3)Oc3cc2cc(c3O[C@@H]2O[C@H](CO)[C@@H](O)[C@H](O)[C@H]2O[C@H]2C[C@](C)(N)[C@H](O)[C@H](C)O2)Oc2ccc(cc2Cl)[C@H]1O
3. O=C1CC2(CCCC2)CC(=O)N1CCCCN1CCN(c2ncccn2)CC1

1: 0; 2: 0; 3: 0

Provide each entry's Hepatotoxicity (severe hepatitis) from the list below.
1. C1CC1
2. COc1ccc2c(C(=S)N(C)CC(=O)O)cccc2c1C(F)(F)F

1. 2
2. 1
